system: NCI-H460 large cell lung cancer cell line; assay: MTT cytotoxicity assay, NCI-H460; type: cell-based; conditions: Homo sapiens, NCI-H460, 48 h, read-out: IC50 NCI-H460
QUANTITY: IC50

Request: Reported IC50, compound O=C(O)C(Cl)Cl [DCA, Dichloroacetate] : ____
Response: > 100 µM

###

Below: a set of entries, each annotated with reported IC50.
system: HUVEC human umbilical vein endothelial cell line; test: MTT cytotoxicity assay, HUVEC; format: cell-based; settings: read-out: IC50 HUVEC, 48 h drug exposure, normal cells
Only the number, expressed in µM, is required.

compound="N.N.[Cl][Pt][Cl] [Cisplatin, cisplatin]" value_units=µM endpoint_value=36.9

Request: Given the compound O=C1[O][Pt]2([NH][C@@H]3CCCC[C@H]3[NH]2)[O]C1=O , what is its reported IC50?
Response: 51
